For each of the compounds below, state its IC50.
System: full length human TREX1 (Homo sapiens)
Construct: N-terminally His-Tev tagged full length human TREX1; made in house; host or cells: E. coli
Sequence (Q9NSU2 whole entry): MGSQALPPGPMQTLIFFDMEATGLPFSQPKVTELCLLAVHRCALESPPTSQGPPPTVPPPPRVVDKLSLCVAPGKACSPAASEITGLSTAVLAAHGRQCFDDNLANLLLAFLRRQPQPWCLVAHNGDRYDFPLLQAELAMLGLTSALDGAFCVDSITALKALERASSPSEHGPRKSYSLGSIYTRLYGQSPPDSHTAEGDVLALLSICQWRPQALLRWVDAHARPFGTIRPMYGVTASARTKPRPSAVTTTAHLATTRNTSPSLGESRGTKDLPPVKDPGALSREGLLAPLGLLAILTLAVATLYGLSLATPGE
Experimental details: hTREX1 Biochemical Assay (fluorescence, dsDNA substrate degradation)
Experimental context: biochemical, read-out: hTREX1 IC50

Ask: Dear colleague, I am looking for the recorded IC50 of the following compound: CCn1c(C(C)C(c2cnn(C)c2)c2ccccc2C#N)nc(C(=O)Nc2cnoc2)c(O)c1=O (single isomer, unassigned) [Example 149 D2E2]
Reply: > 0.01 µM

Ask: Requested read-out: IC50. Entry: Cc1cnc(C)c(C(c2cc(F)ccc2Cl)C(C)c2nc(C(=O)Nc3cnoc3)c(O)c(=O)n2C)n1 (single isomer, unassigned) [Example 121 D1E2]
Reply: > 0.01 µM

Ask: Field request: IC50 | item: CC(c1nc(C(=O)Nc2cnoc2)c(O)c(=O)n1C)C(c1ccccc1Cl)c1cnn(C)c1C#N (single isomer, unassigned) [Example 96 D2E1]
Reply: > 0.01 µM

Ask: Can you look up the measured IC50 of Cc1ccnn1C(c1cc(F)ccc1Cl)C(C)c1nc(C(=O)Nc2cnoc2)c(O)c(=O)n1C (single isomer, unassigned) [Example 145 D1E2] for me?
Reply: > 0.01 µM

Ask: Find the recorded IC50 belonging to COCCn1cc(C(c2cc(F)c(F)cc2Cl)C(C)c2nc(C(=O)Nc3cnoc3)c(O)c(=O)n2C)cn1 (single isomer, unassigned) [Example 73 D2E2] and report it.
Reply: > 0.01 µM

Ask: Form field: reported IC50 of CC(c1nc(C(=O)Nc2cnoc2)c(O)c(=O)n1C)C(c1cnn(C)c1)c1cc(C(F)(F)F)ccc1C#N (single isomer, unassigned) [Example 29 D1E1]
Reply: < 0.001 µM

Ask: Look at this compound and give its reported IC50. Cc1nn(C)c(C)c1C(c1ccccc1C#N)C(C)c1nc(C(=O)Nc2cnoc2)c(O)c(=O)n1C (single isomer, unassigned) [Example 78 D1E2]
Reply: > 0.01 µM

Ask: # get_value(readout='IC50', item= COC(C)(C)Cn1cc(C(c2ccccc2C#N)C(C)c2nc(C(=O)Nc3cnoc3)c(O)c(=O)n2C)cn1 (single isomer, unassigned) [Example 37 D1E2] )
Reply: > 0.01 µM

Ask: Tell me the measured IC50 of CC(c1nc(C(=O)Nc2cnoc2)c(O)c(=O)n1C)C(c1cnn(C)c1)c1c(C#N)cccc1C#N (single isomer, unassigned) [Example 19 D2E1] , please.
Reply: > 0.01 µM

Ask: I have this compound here, CCn1cc(C(c2ccc(F)cc2C#N)C(C)c2nc(C(=O)Nc3cnoc3)c(O)c(=O)n2C)cn1 (single isomer, unassigned) [Example 16 D2E1] , and I need its recorded IC50.
Reply: > 0.01 µM

Ask: Suppose we examine the compound CC(c1nc(C(=O)Nc2cnoc2)c(O)c(=O)n1C)C(c1cnn(C)c1)c1cc(F)c(F)cc1C#N (single isomer, unassigned) [Example 25 D2E1] ; what IC50 value has been reported?
Reply: > 0.01 µM

Ask: Item under review: Cc1ncc(C(c2ccccc2C#N)C(C)c2nc(C(=O)Nc3cnoc3)c(O)c(=O)n2C)cn1 (single isomer, unassigned) [Example 67 D2E2] . Reported IC50?
Reply: > 0.01 µM

Ask: What does the data say about its IC50? Entry: Cc1c(C(c2ccccc2C#N)C(C)c2nc(C(=O)Nc3cnoc3)c(O)c(=O)n2C)cnn1C (single isomer, unassigned) [Example 4 D1E1]
Reply: < 0.001 µM

Ask: Fill blank: measured IC50 of the compound CC(c1nc(C(=O)Nc2cnoc2)c(O)c(=O)n1C)C(c1cnn(C2COC2)c1)c1ccccc1C#N (single isomer, unassigned) [Example 106 D2E1] is ____.
Reply: > 0.01 µM

Ask: Reported IC50, compound Cc1cnc(C(c2ccccc2C#N)C(C)c2nc(C(=O)Nc3cnoc3)c(O)c(=O)n2C)c(C)n1 (single isomer, unassigned) [Example 123 D2E1] : ____
Reply: 0.001 to 0.01 µM

Ask: Can you look up the measured IC50 of CC(c1nc(C(=O)Nc2cnoc2)c(O)c(=O)n1C)C(c1cnn(CC(F)(F)F)c1)c1ccccc1C#N (single isomer, unassigned) [Example 22 D2E1] for me?
Reply: > 0.01 µM

Ask: Using the record for Cc1cc(C(c2cc(F)ccc2C#N)C(C)c2nc(C(=O)Nc3cnoc3)c(O)c(=O)n2C)n(C)n1 (single isomer, unassigned) [Example 111 D2E2] , report its IC50.
Reply: > 0.01 µM

Ask: Sample CC(C)c1cnn(C(c2ccccc2Cl)C(C)c2nc(C(=O)Nc3cnoc3)c(O)c(=O)n2C)c1 (single isomer, unassigned) [Example 135 D1E2] — what was its IC50?
Reply: > 0.01 µM

Ask: Look up IC50: Cc1nn(C)c(C)c1C(c1ccccc1C#N)C(C)c1nc(C(=O)Nc2cnoc2)c(O)c(=O)n1C (single isomer, unassigned) [Example 78 D1E1]
Reply: < 0.001 µM

Ask: Requested field: IC50. Item: CC(c1nc(C(=O)Nc2cnoc2)c(O)c(=O)n1C)C(c1cnn(CCO)c1)c1ccccc1C#N (single isomer, unassigned) [Example 35 D1E2]
Reply: > 0.01 µM

Ask: # lookup: IC50 of Cc1cnc(C)c(C(c2cc(F)ccc2Cl)C(C)c2nc(C(=O)Nc3cnoc3)c(O)c(=O)n2C)n1 (single isomer, unassigned) [Example 121 D1E1]
Reply: < 0.001 µM

Ask: Fill in: IC50 of Cc1cc(C(c2cc(F)ccc2C#N)C(C)c2nc(C(=O)Nc3cnoc3)c(O)c(=O)n2C)nn1C (single isomer, unassigned) [Example 112 D1E2] is ___
Reply: > 0.01 µM

Ask: Please look up its IC50: Cc1nn(C)cc1C(c1ccc(F)cc1C#N)C(C)c1nc(C(=O)Nc2cnoc2)c(O)c(=O)n1C (single isomer, unassigned) [Example 56 D1E2]
Reply: > 0.01 µM
